Counter-ions that a name gives are not always drawn.
metric: melting point (°C)

Example cases with answers are listed next.
COc1cc(F)cc(C(NC2CCN(C)CC2)c2nc3ccccc3s2)c1 (stereo not shown) (as salt: oxalate)	157
CN1CCC(OC(c2nc3ccccc3s2)c2cc(OC(F)(F)F)ccc2F)CC1 (stereo not shown) (as salt: oxalate)	95
Cc1ccc(COc2cccc(C(NC3CCN(C)CC3)c3nc4ccccc4[nH]3)c2)cc1 (stereo not shown)	87
CN1CCC(OC(c2cccc(N3CCC(O)C3)c2)c2nc3ccccc3s2)CC1 (stereo not shown) (as salt: oxalate) [Example 407]	106
CN1CCC(OC(c2cccc(CCCCCCNC(=N)N)c2)c2nc3ccccc3s2)CC1 (stereo not shown) (as salt: hydrochloride)	90

P = Cc1ccc(C(NC2CCN(C)CC2)c2nc3ccccc3s2)cc1 (stereo not shown) (as salt: oxalate)
Q = CN1CCC(OC(c2nc3ccccc3[nH]2)c2cc(OCCF)ccc2O)CC1 (stereo not shown)
[Q] Between the two listed entries P and Q , which has its melting point at the higher number? State the label of the item chosen.
[A] Q
(Q: 222 °C, P: 110 °C)

----------
Structures can show the parent of a compound that is named as a salt.
metric: melting point (°C)

CN1CCC(OC(c2nc3ccccc3[nH]2)c2cc(SCCF)ccc2O)CC1 (stereo not shown)	127
CN1CCC(OC(c2cccc(N3CC4CN(C)CC4C3)c2)c2nc3ccccc3s2)CC1 (stereo not shown) (as salt: oxalate)	131

I = CN1CCC(OC(c2cccc(C#CCCCN)c2)c2nc3cc(F)ccc3[nH]2)CC1 (stereo not shown) (as salt: oxalate)
II = Cc1ccc(C(OC2CCN(C)CC2)c2nc3ccccc3[nH]2)cc1 (stereo not shown)
[Q] Of I and II , whose reported melting point is numerically smaller? State the label of the item chosen.
[A] II

----------
Recorded Ki or IC50 activity class values for a group of molecules are listed next.
target: human H4 receptor (Homo sapiens, UniProt Q9H3N8); construct: expressed in transfected cells; assay: [3H]Histamine binding on membranes of CHO cells stably expressing human H4 receptor

Example cases with answers are listed next.
CN1CCC(OC(c2cccc(SCCCCCCO)c2)c2nc3ccccc3[nH]2)CC1 (centres unmarked) [Example 295]	< 300 nM
CN1CCC(OC(c2cccc(OCC3CCCNC3)c2)c2nc3ccccc3s2)CC1 (centres unmarked) [Example 378]	< 1000 nM
CCOc1cccc(C(OC2CCN(C)CC2)c2nc3ccccc3s2)c1 (centres unmarked) [Example 47]	< 30 nM
Cc1cccc(C(NC2CCN(C)CC2)c2nc3ccccc3s2)c1 (centres unmarked) [Example 21]	< 300 nM

Read the next record carefully.
[Q] Give a short answer stating reported Ki or IC50 activity class for CN1CCC(OC(c2cccc(C#CCCO)c2)c2nc3ccccc3s2)CC1 (centres unmarked) [Example 236] .
[A] < 300 nM

----------
target: human H4 receptor (Homo sapiens, UniProt Q9H3N8); construct: expressed in transfected cells; assay: [3H]Histamine binding on membranes of CHO cells stably expressing human H4 receptor
Recorded Ki or IC50 activity class values for a group of compounds are listed next.

CN1CCC(OC(c2cccc(C#CCCCCNC(=N)N)c2)c2nc3ccccc3s2)CC1 (centres unmarked) [Example 342]	< 300 nM

Read the next record carefully.
[Q] Give a short answer stating reported Ki or IC50 activity class for CN1CCC(OC(c2cccc(SCC3(CCO)CC3)c2)c2nc3ccccc3s2)CC1 (centres unmarked) [Example 268] .
[A] < 300 nM
